The origin of these recorded values is PubChem BioAssay (Tox21).

Assay: qHTS RealTime-Glo MT Cell Viability Assay in HepG2 cells - 40 hour (AID 1224870); note: % is set by controls: 0 for no effect and ±100 for the full control effect; nearly all actives have a fitted effect of over 50% in size
Details: RealTime-Glo luminescence; series mostly up to 76.8 µM
Description: National Center for Advancing Translational Sciences [NCATS] NIH Chemical Genomics Center [NCGC] U.S. Environmental Protection Agency [EPA] National Institutes of Environmental Health Sciences [NIEHS] National Toxicology Program [NTP] U.S. Food and Drug Administration [FDA] Measure of cell viability is critical in the cell-base assay. Analysis of cell viability is necessary for the characterization of cell responses to cytotoxic drugs and environmental stress. […]
Inconclusive results are not listed. The source made the active and inactive calls. Calls come from the whole dose curve; as a rule, active = well fitted cell-killing curve with a large enough effect in the repeat runs; inconclusive = weak or mixed curves, or effect the other way; inactive = flat fitted curve, though single readings scatter.
Quantity name: activity change, negative = cytotoxic

Observe how each entry below is paired with its result.
Compound	Quantity name	Result
CNC(=O)NC	activity change, negative = cytotoxic	inactive
CCOC(=O)C(C)(C)C	activity change, negative = cytotoxic	inactive
C=C(C)[C@@H]1CC[C@@H](C)C[C@@H]1O	activity change, negative = cytotoxic	inactive
CCC(=O)c1ccc(O)cc1	activity change, negative = cytotoxic	inactive
COc1ccc(OC)c(NC(=O)CC(C)=O)c1	activity change, negative = cytotoxic	inactive
CNCc1ccccc1	activity change, negative = cytotoxic	inactive
CCNC(=O)NCCCOc1cccc(CN2CCCCC2)c1	activity change, negative = cytotoxic	inactive
COc1ccc(/C=N/NC(=O)c2ccncc2)cc1OC	activity change, negative = cytotoxic	inactive

Quick request: activity change, negative = cytotoxic for each listed item, please.
1. O=C(O)c1ccc(OCCN2CCCCC2)cc1
2. O=C(CN1CCN(Cc2ccc3c(c2)OCO3)CC1)N1c2ccccc2Sc2ccccc21
3. CO/N=C(/C(=O)N[C@@H]1C(=O)N2C(C(=O)O)=C(Cn3nnc(C)n3)CS[C@H]12)c1csc(N)n1
4. Cc1cccc(Nc2ccncc2S(=O)(=O)NC(=O)NC(C)C)c1
5. Nc1ccc(C(=O)OCC(O)CO)cc1 (stereo not drawn)

stdout:
1. inactive
2. inactive
3. inactive
4. inactive
5. inactive

----------
assay: qHTS assay to test for compound auto fluorescence at 535 nm (green) in HEK293 cell free culture (AID 720682); details: cell-free medium, green autofluorescence 485/535 nm, active compounds read high; series mostly up to 91.3 µM; note: % is set by controls: 0 for no effect and ±100 for the full control effect
Activity calls are given as the source filed them. The call rests on the fitted dose curve; in most records, active means well fitted curve in the direction sought with a large enough effect in the repeat runs; inconclusive means weak or mixed curves; inactive means flat fitted curve, though single readings scatter.
Quantity name: activity change

Observe how each entry below is paired with its result.
Structure smiles	activity change
CC(C)C(=O)c1ccccc1	inactive
CC(C)(c1ccc(Oc2ccc3c(c2)C(=O)OC3=O)cc1)c1ccc(Oc2ccc3c(c2)C(=O)OC3=O)cc1	inactive
CCCCCCCC[Si](OCC)(OCC)OCC	inactive
BrC/C=C/CBr	0.0973% [at 18.6 µM] (inactive)
CCCCCCCCCCCCC	inactive
Nc1ccc(S(=O)(=O)Nc2ccccn2)cc1	0.0547% [at 18.6 µM] (inactive)

stdin: Give its activity change value. Item: `CCCCCCCCCCCCCCCC(=O)NCCO`
stdout: inactive

----------
experiment: qHTS assay to identify small molecule agonists of the RXR signaling pathway - cell viability counter screen (AID 1159529); settings: RXR-alpha-bla HEK293T viability, CellTiter-Glo, 16 h; series mostly up to 76.8 µM;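 note: HEK 293T cells carrying an RXR-alpha UAS beta-lactamase reporter; % is set by controls: 0 for no effect and ±100 for the full control effect; nearly all actives have a fitted effect of over 50% in size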
Inconclusive results are not listed. The source made the active and inactive calls. Calls follow the shape of the dose curve; as a rule, active = well fitted cell-killing curve with a large enough effect in the repeat runs; inconclusive = weak or mixed curves, or effect the other way; inactive = no such curve, though single readings can be large or run the other way.
Quantity name: activity change, negative = cytotoxicity

Compound	activity change, negative = cytotoxicity
CCOC(=O)CC(CC(=O)OCC)(OC(C)=O)C(=O)OCC	inactive
CC1(N)CCC(C(C)(C)N)CC1 (centres undefined)	inactive
CC(Cl)COP(=O)(OCC(C)Cl)OCC(C)Cl (centres undefined)	inactive
C/C=C(\C)C(=O)OCC/C=C\CC	inactive
NS(=O)(=O)c1cc2c(cc1Cl)NC(CC1CCCC1)NS2(=O)=O (centres undefined)	inactive
CCOC(=O)CC#N	inactive
CCC(=O)OCCC(C)CCC=C(C)C (centres undefined)	inactive
CC1CCC(C(C)(C)S)C(=O)C1 (centres undefined)	inactive
O=CN1CCOCC1	inactive
Cc1cccc(NC(=S)N(C)C)c1	inactive

Quick request: activity change, negative = cytotoxicity for each listed item, please.
1. COCC(=O)Nc1c(I)c(C(=O)NCC(O)CO)c(I)c(C(=O)N(C)CC(O)CO)c1I (centres undefined)
2. CN(C1CCCCC1)S(=O)(=O)c1ccccc1N
3. CN(C)CCOCCN(C)CCO
4. CCN1CN(CC)CN(CC)C1

stdout:
["inactive", "inactive", "inactive", "inactive"]

----------
test: qHTS assay for small molecule agonists of the p53 signaling pathway - cell viability (AID 651633); details: p53RE-bla HCT-116 viability, ATP luminescence, 16 h; series mostly up to 83.3 µM;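 note: p53RE-bla HCT reporter cells with a stable beta-lactamase p53 reporter; % is set by controls: 0 for no effect and ±100 for the full control effect; nearly all actives have a fitted effect of over 30% in size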
Records with an inconclusive call do not appear. Active and inactive are the calls of the source. The call rests on the fitted dose curve.
Quantity name: activity change, negative = cytotoxicity

Observe how each entry below is paired with its result.
Compound	activity change, negative = cytotoxicity
NC(=O)NNC(N)=O	inactive
COc1cc([N+](=O)[O-])ccc1N	inactive
COc1ccc(OC)c(NC(=O)CC(C)=O)c1	inactive
C/C=C(\C)C(=O)OCC/C=C\CC	inactive
CCOC(=O)CC(CC(=O)OCC)(OC(C)=O)C(=O)OCC	inactive
COc1ccc(NS(=O)(=O)c2ccc(N)cc2)nn1	inactive
NS(=O)(=O)c1cc2c(cc1Cl)NC(C(Cl)Cl)NS2(=O)=O (centres undefined)	inactive
Cc1ccc(S(=O)(=O)NC(=O)NC2CCCCCCC2)cc1	inactive
CC(C)c1ccccc1O	inactive
CCCOC(=O)CCCCC(=O)OCCC	inactive

Quick request: activity change, negative = cytotoxicity for each listed item, please.
1. CCCCCCCCCCC
2. NS(=O)(=O)c1cc2c(cc1Cl)NC(CC1CCCC1)NS2(=O)=O (centres undefined)
3. COCC(=O)Nc1c(I)c(C(=O)NCC(O)CO)c(I)c(C(=O)N(C)CC(O)CO)c1I (centres undefined)
4. C=CCCCCCCCCCCC

stdout:
inactive
inactive
inactive
6.07% [at 8.08 µM] (inactive)

----------
experiment: qHTS assay to identify small molecule antagonists of the androgen receptor (AR) signaling pathway using the MDA cell line - cell viability counter screen (AID 743041; note: % is set by controls: 0 for no effect and ±100 for the full control effect; nearly all actives have a fitted effect of over 45% in size); settings: MDA-kb2 viability, CellTiter-Fluor, 16 h, cells co-treated with R1881 androgen agonist; series mostly up to 70.3 µM
Records with an inconclusive call do not appear. Activity calls are given as the source filed them. Calls come from the whole dose curve; as a rule, active = well fitted cell-killing curve with a large enough effect in the repeat runs; inconclusive = weak or mixed curves, or effect the other way; inactive = flat fitted curve, though single readings scatter.

Structure smiles	viability change, negative = cytotoxic
Cc1c(C(C)C)c(=O)n(-c2ccccc2)n1C	inactive
COC(=O)CCC(=O)O	inactive
CCCOC(=O)CCCCC(=O)OCCC	inactive

----------
target: Cytochrome P450 1A2 (Homo sapiens); assay: Cytochrome P450 Family 1 Subfamily A Member 2 (CYP1A2) small molecule antagonists: luciferase reporter qHTS assay (AID 1671199); conditions: P450-Glo CYP1A2 enzyme, luciferin luminescence, 1 h; series mostly up to 115 µM; note: nearly all actives have a fitted effect of over 50% in size
Records with an inconclusive call do not appear. The source made the active and inactive calls. Calls come from the whole dose curve; as a rule, active = well fitted inhibition curve with a large enough effect in the repeat runs; inconclusive = weak or mixed curves; inactive = no such curve, though single readings can be large or run the other way.
# output must be one of active, inactive

These solved cases illustrate the format of a correct answer.
Structure smiles	Cat
Cc1cccc(NC(=S)N(C)C)c1	active
CCCCOC(=O)C(=O)OCCCC	inactive
Nc1cc(S(=O)(=O)O)ccc1S(=O)(=O)O	inactive
O=C(O)c1ccccc1C(=O)OCc1ccccc1	inactive
C[C@H](CCC(=O)NCC(=O)O)[C@H]1CC[C@H]2[C@@H]3[C@H](O)C[C@@H]4C[C@H](O)CC[C@]4(C)[C@H]3C[C@H](O)[C@]12C	inactive
COc1ccc(OC)c(NC(=O)CC(C)=O)c1	active
COCCOCCOCCOC	inactive
COC(/C=C(\C)CCC=C(C)C)OC	inactive
CC1=CC[C@H](CC=O)C1(C)C	active
C=C(C)C(=O)OCCCCCCOC(=O)C(=C)C	active

stdin: Field: outcome | Entry: `CCN(CCO)c1cccc(C)c1`
stdout: active

stdin: Field: outcome | Entry: `O=C(O)C(=O)Nc1cccc(-c2nn[nH]n2)c1`
stdout: inactive

stdin: Field: outcome | Entry: `CCCCCCCCCCCCOC(C)=O`
stdout: inactive

----------
assay: qHTS assay to test for compound auto fluorescence at 535 nm (green) in HepG2 cells (AID 720675); settings: green autofluorescence 485/535 nm, 1 h; series mostly up to 91.3 µM; note: % is set by controls: 0 for no effect and ±100 for the full control effect
The source made the active and inactive calls. The call rests on the fitted dose curve; in most records, active means well fitted curve in the direction sought with a large enough effect in the repeat runs; inconclusive means weak or mixed curves; inactive means flat fitted curve, though single readings scatter.
Quantity name: fluorescence, % of fluorescein control

Observe how each entry below is paired with its result.
Compound	fluorescence, % of fluorescein control
CO/N=C(/C(=O)N[C@@H]1C(=O)N2C(C(=O)O)=C(Cn3nnc(C)n3)CS[C@H]12)c1csc(N)n1	inactive
NC(Cc1c[nH]c2ccccc12)C(=O)O (stereo not drawn)	inactive
C=COCCOCCOC=C	inactive
C[C@H](CCC(=O)NCC(=O)O)[C@H]1CC[C@H]2[C@@H]3[C@H](O)C[C@@H]4C[C@H](O)CC[C@]4(C)[C@H]3C[C@H](O)[C@]12C	inactive
O=c1cc(O)c(Cl)c[nH]1	inactive
CC(C)CCO	inactive
Cc1ccc2c(c1)c1c3n2CCNC3CCC1 (stereo not drawn)	inactive
CCCCCC(=O)OCC	inactive
CC(=O)OC(C(=O)c1ccccc1)c1ccccc1 (stereo not drawn)	inactive
CC(=O)OC(C)c1ccccc1 (stereo not drawn)	inactive

Quick request: fluorescence, % of fluorescein control for each listed item, please.
1. CCCCC(C)C(=O)O (stereo not drawn)
2. CC1=NN(c2ccc(S(=O)(=O)O)cc2)C(=O)C1N=Nc1ccccc1 (stereo not drawn)

stdout:
inactive
inactive

Quick request: fluorescence, % of fluorescein control for each listed item, please.
1. BrC/C=C/CBr
2. CN=C(NC#N)NCCSCc1csc(N=C(N)N)n1
3. c1ccc(CNc2ncnc3nc[nH]c23)cc1
4. CC(C)CCC(=O)CCC(C)C
5. CC1CCC(C(C)(C)S)C(=O)C1 (stereo not drawn)
6. O=C1c2ccccc2-c2ccccc21

stdout:
-0.0535% [at 18.6 µM] (inactive)
inactive
inactive
inactive
inactive
inactive

Quick request: fluorescence, % of fluorescein control for each listed item, please.
1. CC(=O)OCC(=O)[C@@]1(O)[C@H](OC(C)=O)C[C@H]2[C@@H]3CCC4=CC(=O)C=C[C@]4(C)[C@@]3(F)[C@@H](O)C[C@@]21C
2. NS(=O)(=O)c1cc2c(cc1Cl)NC(C(Cl)Cl)NS2(=O)=O (stereo not drawn)
3. N#CCCOCCOCCC#N

stdout:
["inactive", "0.136% [at 18.6 µM] (inactive)", "inactive"]

Quick request: fluorescence, % of fluorescein control for each listed item, please.
1. C=C[Si](C)(C)O[Si](C)(C)C=C
2. CC(C)C(=O)c1ccccc1

stdout:
1. inactive
2. inactive

Quick request: fluorescence, % of fluorescein control for each listed item, please.
1. NC(=O)NNC(N)=O
2. CCCCC(=O)N(C)C
3. CN[C@@H]1[C@H](O)[C@H](NC)[C@H]2O[C@@]3(O)C(=O)C[C@@H](C)O[C@H]3O[C@@H]2[C@H]1O
4. CCCCC[Si](OCC)(OCC)OCC
5. Cc1cccc(C(=O)O)c1[N+](=O)[O-]

stdout:
1. inactive
2. inactive
3. -0.162% [at 18.6 µM] (inactive)
4. inactive
5. inactive
